Measured residual activity of individual entries
Molecular target: CDK6 CCND3 (human) (UniProt P30281+Q00534)
Sequence (P30281 whole entry, looked up): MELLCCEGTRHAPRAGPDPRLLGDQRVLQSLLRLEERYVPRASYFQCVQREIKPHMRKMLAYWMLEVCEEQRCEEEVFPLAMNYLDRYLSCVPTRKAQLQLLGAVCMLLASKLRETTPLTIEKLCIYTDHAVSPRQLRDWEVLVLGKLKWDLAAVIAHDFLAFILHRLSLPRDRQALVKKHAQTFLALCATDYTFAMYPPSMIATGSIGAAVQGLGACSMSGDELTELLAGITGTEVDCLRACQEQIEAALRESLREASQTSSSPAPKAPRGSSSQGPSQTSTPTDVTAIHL
Sequence (Q00534 whole entry, looked up): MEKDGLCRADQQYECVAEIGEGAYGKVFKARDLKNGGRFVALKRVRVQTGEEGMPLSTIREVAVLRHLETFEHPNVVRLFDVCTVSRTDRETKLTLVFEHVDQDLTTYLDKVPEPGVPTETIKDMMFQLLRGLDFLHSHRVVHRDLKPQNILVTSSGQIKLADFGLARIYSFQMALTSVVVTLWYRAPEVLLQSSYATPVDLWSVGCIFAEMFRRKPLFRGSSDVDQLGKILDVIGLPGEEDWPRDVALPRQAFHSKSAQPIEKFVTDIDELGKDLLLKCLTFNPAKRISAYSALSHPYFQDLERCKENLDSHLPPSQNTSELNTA
Test: radiometric filter-binding kinase assay, Kinase HotSpot
Settings: compound 0.5 µM; ATP 10 µM
OBSERVED PROPERTY: residual activity (%)

                                    compound  meas_value
 0  Cc1cc(Nc2cc(N3CCN(C)CC3)nc(Sc3ccc(NC(=O)C4CC4)cc3)n2)[nH]n1         121
 1     O=c1cc(N2CCNCC2)oc2c(-c3ccccc3)cccc12        93.8
 2    Clc1ccc(Nc2nnc(Cc3ccncc3)c3ccccc23)cc1         125
 3  Nc1nc(Nc2ccc(S(N)(=O)=O)cc2)nn1C(=S)Nc1c(F)cccc1F        7.69
 4  CCCNC(=O)Nc1ccc(Oc2ncnc3cc(OC)c(OC)cc23)cc1Cl        89.5
 5               Cc1cc2ncc(-c3ccccc3)nc2cc1C        86.7
 6  Oc1ccc(-c2nc(-c3ccc(F)cc3)c(-c3ccncc3)[nH]2)cc1         104
 7      COc1ccc(-c2cnc3c(-c4ccsc4)cnn3c2)cc1        33.4
 8  C#Cc1cccc(Nc2ncnc3cc(OCCOC)c(OCCOC)cc23)c1         117
 9  NC(=O)c1ccc(-c2nc(-c3ccccn3)c(-c3ccc4c(c3)OCCO4)[nH]2)cc1         104
10  CCOc1nc(NC(=O)Cc2cc(OC)ccc2OC)cc(N)c1C#N        98.6
11  Nc1nc(Nc2ccc(S(N)(=O)=O)cc2)nn1C(=O)c1c(F)cccc1F        36.3
12  COc1cc2ncnc(Nc3ccc(F)c(Cl)c3)c2cc1OCCCN1CCOCC1         118
13  NC(=O)c1ccc(N(C(N)=O)c2c(F)cccc2F)nc1-c1ccc(F)cc1F         119
14  CC(C)[C@H](CO)Nc1nc(Nc2cccc(Cl)c2)c2ncn(C(C)C)c2n1          71
15  CC(C)(C)c1nc2c3ccc(F)cc3c3c(=O)[nH]ccc3c2[nH]1        87.8
16  CSc1nc(-c2ccc(F)cc2)c(-c2ccnc(NC(C)c3ccccc3)c2)[nH]1 (configuration not stated)        98.3

---

Molecular target: PAK1 (human)
Assay: radiometric filter-binding kinase assay, Kinase HotSpot
Settings: compound 0.5 µM; ATP 10 µM
Measured residual activity of individual entries
OBSERVED PROPERTY: residual activity (%)

>>> print(df.to_string())
                                   compound  meas_value
0  Nc1nc(Nc2ccc(S(N)(=O)=O)cc2)nn1C(=O)c1c(F)cccc1F        89.5
1               Cc1cc2ncc(-c3ccccc3)nc2cc1C        97.8
2  Oc1ccc(-c2nc(-c3ccc(F)cc3)c(-c3ccncc3)[nH]2)cc1        97.3
3  COc1cc2ncnc(Nc3ccc(F)c(Cl)c3)c2cc1OCCCN1CCOCC1         104
4   O=C1Nc2ccccc2/C1=C\c1c(Cl)[nH]c2ccccc12        92.8
5  C#Cc1cccc(Nc2ncnc3cc(OCCOC)c(OCCOC)cc23)c1         109
6  COc1cc2nccc(Oc3ccc(NC(=S)NC(=O)c4ccccc4C)cc3)c2cc1OC         101
7  CC(C)(C)c1nc2c3ccc(F)cc3c3c(=O)[nH]ccc3c2[nH]1        82.1
8  O=C(NC(NC(=S)Nc1ccc(F)c([N+](=O)[O-])c1)C(Cl)(Cl)Cl)C(c1ccccc1)c1ccccc1 (stereo not given)          86
9  CSc1nc(-c2ccc(F)cc2)c(-c2ccnc(NC(C)c3ccccc3)c2)[nH]1 (stereo not given)        97.7

---

Target: RPS6KA5 KD2 (human) (UniProt O75582)
Sequence (O75582 whole entry, looked up): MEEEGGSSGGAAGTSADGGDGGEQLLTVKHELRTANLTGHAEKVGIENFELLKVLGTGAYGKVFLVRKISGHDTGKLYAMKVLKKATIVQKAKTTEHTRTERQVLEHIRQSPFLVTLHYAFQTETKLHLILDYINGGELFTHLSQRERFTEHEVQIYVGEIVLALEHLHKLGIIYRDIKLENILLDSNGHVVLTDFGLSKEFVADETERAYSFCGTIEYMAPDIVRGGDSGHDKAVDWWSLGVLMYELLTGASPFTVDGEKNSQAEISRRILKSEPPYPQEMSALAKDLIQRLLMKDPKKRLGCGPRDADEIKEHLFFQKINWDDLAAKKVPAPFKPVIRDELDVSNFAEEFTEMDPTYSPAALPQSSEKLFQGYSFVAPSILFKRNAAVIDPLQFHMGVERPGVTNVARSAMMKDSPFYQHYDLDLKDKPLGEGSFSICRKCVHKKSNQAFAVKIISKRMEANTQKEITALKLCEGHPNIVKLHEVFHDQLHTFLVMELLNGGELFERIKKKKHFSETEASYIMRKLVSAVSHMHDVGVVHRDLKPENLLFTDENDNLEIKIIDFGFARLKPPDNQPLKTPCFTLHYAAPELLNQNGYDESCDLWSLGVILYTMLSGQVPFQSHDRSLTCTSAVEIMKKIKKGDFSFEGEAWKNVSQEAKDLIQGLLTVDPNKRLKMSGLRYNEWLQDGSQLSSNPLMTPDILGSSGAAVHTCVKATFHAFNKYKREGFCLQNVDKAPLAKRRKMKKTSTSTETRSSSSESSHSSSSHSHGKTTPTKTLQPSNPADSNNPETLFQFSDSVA
Experiment: radiometric filter-binding kinase assay, Kinase HotSpot
Conditions: compound 0.5 µM; ATP 10 µM
OBSERVED PROPERTY: residual activity (%)

>>> print(df.to_string())
                                    molecule                       target_of_assay  meas_value
 0      COc1ccc(-c2cnc3c(-c4ccsc4)cnn3c2)cc1  RPS6KA5 KD2 (human) (UniProt O75582)        90.3
 1  C#Cc1cccc(Nc2ncnc3cc(OCCOC)c(OCCOC)cc23)c1  RPS6KA5 KD2 (human) (UniProt O75582)        96.8
 2  Nc1n[nH]c2nnc(-c3c(-c4ccccc4)nn4ccccc34)cc12  RPS6KA5 KD2 (human) (UniProt O75582)         101
 3  COc1cc2ncnc(Nc3ccc(F)c(Cl)c3)c2cc1OCCCN1CCOCC1  RPS6KA5 KD2 (human) (UniProt O75582)         100
 4  O=C(NC(NC(=S)Nc1ccc(F)c([N+](=O)[O-])c1)C(Cl)(Cl)Cl)C(c1ccccc1)c1ccccc1 (stereo not given)  RPS6KA5 KD2 (human) (UniProt O75582)         113
 5  CCCNC(=O)Nc1ccc(Oc2ncnc3cc(OC)c(OC)cc23)cc1Cl  RPS6KA5 KD2 (human) (UniProt O75582)        95.6
 6  CS(=O)c1ccc(-c2nc(-c3ccc(F)cc3)c(-c3ccncc3)[nH]2)cc1 (stereo not given)  RPS6KA5 KD2 (human) (UniProt O75582)         103
 7     O=c1cc(N2CCNCC2)oc2c(-c3ccccc3)cccc12  RPS6KA5 KD2 (human) (UniProt O75582)        99.1
 8      O=C(Nc1ccc(Cl)cc1)c1ccccc1NCc1ccncc1  RPS6KA5 KD2 (human) (UniProt O75582)        92.5
 9   O=C1Nc2ccccc2/C1=C\c1c(Cl)[nH]c2ccccc12  RPS6KA5 KD2 (human) (UniProt O75582)        85.5
10  CC(C)[C@H](CO)Nc1nc(Nc2cccc(Cl)c2)c2ncn(C(C)C)c2n1  RPS6KA5 KD2 (human) (UniProt O75582)         100
11  Nc1nc(Nc2ccc(S(N)(=O)=O)cc2)nn1C(=O)c1c(F)cccc1F  RPS6KA5 KD2 (human) (UniProt O75582)        97.2
12  COc1cc2nccc(Oc3ccc(NC(=S)NC(=O)c4ccccc4C)cc3)c2cc1OC  RPS6KA5 KD2 (human) (UniProt O75582)        95.3
13  CSc1nc(-c2ccc(F)cc2)c(-c2ccnc(NC(C)c3ccccc3)c2)[nH]1 (stereo not given)  RPS6KA5 KD2 (human) (UniProt O75582)        97.3
14           CCN1/C(=C/C(C)=O)Sc2ccc(OC)cc21  RPS6KA5 KD2 (human) (UniProt O75582)        87.4

---

Molecular target: AKT1 (human) (UniProt P31749)
Sequence (P31749 whole entry, looked up): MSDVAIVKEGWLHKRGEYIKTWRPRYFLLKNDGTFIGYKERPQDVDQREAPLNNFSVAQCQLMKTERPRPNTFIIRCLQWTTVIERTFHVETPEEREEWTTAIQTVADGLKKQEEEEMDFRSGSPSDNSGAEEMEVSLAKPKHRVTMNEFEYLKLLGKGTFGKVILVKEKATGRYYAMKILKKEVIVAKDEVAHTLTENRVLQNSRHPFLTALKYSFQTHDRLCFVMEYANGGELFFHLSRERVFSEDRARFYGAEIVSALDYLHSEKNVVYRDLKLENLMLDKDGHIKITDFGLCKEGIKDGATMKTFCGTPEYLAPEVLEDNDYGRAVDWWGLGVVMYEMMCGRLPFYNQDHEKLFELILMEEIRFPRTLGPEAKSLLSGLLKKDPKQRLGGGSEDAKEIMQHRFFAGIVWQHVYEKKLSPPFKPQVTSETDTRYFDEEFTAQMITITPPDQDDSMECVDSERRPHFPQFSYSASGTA
Assay: radiometric filter-binding kinase assay, Kinase HotSpot
Conditions: compound 0.5 µM; ATP 10 µM
Measured residual activity of individual entries
OBSERVED PROPERTY: residual activity

                               sample_smiles  meas_value
 0  Nc1nc(Nc2ccc(S(N)(=O)=O)cc2)nn1C(=S)Nc1c(F)cccc1F        103%
 1      O=C(Nc1ccc(Cl)cc1)c1ccccc1NCc1ccncc1       97.6%
 2  Nc1n[nH]c2nnc(-c3c(-c4ccccc4)nn4ccccc34)cc12         98%
 3    Clc1ccc(Nc2nnc(Cc3ccncc3)c3ccccc23)cc1        103%
 4               Cc1cc2ncc(-c3ccccc3)nc2cc1C        101%
 5     O=c1cc(N2CCNCC2)oc2c(-c3ccccc3)cccc12        103%
 6  CC(C)(C)c1nc2c3ccc(F)cc3c3c(=O)[nH]ccc3c2[nH]1       86.8%
 7      COc1ccc(-c2cnc3c(-c4ccsc4)cnn3c2)cc1       92.4%
 8  Cc1ccc(NC(=O)c2ccc(CN3CCN(C)CC3)cc2)cc1Nc1nc(-c2cccnc2)cs1       93.2%
 9  Oc1ccc(-c2nc(-c3ccc(F)cc3)c(-c3ccncc3)[nH]2)cc1        101%
10  COc1cc2nccc(Oc3ccc(NC(=S)NC(=O)c4ccccc4C)cc3)c2cc1OC       95.7%

---

Measured residual activity of individual entries
Biological target: CAMK2B (human) (UniProt Q13554)
Sequence (Q13554 whole entry, looked up): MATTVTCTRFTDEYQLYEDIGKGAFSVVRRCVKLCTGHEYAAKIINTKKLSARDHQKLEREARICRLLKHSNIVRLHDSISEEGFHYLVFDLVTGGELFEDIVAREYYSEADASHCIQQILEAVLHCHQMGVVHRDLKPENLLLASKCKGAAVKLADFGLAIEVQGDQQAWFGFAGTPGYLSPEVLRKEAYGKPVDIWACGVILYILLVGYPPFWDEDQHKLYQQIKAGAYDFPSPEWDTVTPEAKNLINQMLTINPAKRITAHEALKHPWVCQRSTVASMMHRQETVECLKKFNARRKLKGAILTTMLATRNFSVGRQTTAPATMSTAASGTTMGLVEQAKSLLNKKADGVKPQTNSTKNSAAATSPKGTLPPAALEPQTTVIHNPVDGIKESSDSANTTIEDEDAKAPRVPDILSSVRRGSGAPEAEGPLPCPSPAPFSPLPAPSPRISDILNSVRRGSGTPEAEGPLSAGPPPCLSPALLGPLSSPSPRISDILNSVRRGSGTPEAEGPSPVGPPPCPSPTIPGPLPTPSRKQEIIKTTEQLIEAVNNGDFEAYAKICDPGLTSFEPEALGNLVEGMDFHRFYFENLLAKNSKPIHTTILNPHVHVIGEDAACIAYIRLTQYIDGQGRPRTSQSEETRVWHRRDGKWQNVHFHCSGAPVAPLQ
Experiment: radiometric filter-binding kinase assay, Kinase HotSpot
Conditions: compound 0.5 µM; ATP 10 µM
OBSERVED PROPERTY: residual activity (%)

In [3]: df
Out[3]:
                               sample_smiles  meas_value
 0     O=c1cc(N2CCNCC2)oc2c(-c3ccccc3)cccc12         108
 1  NC(=O)c1ccc(N(C(N)=O)c2c(F)cccc2F)nc1-c1ccc(F)cc1F         104
 2  O=C1Nc2cc(Br)ccc2/C1=C1/Nc2ccccc2/C1=N\O        65.8
 3  CC(C)[C@H](CO)Nc1nc(Nc2cccc(Cl)c2)c2ncn(C(C)C)c2n1        94.3
 4      O=C(Nc1ccc(Cl)cc1)c1ccccc1NCc1ccncc1        93.4
 5  COc1cc2nccc(Oc3ccc(NC(=S)NC(=O)c4ccccc4C)cc3)c2cc1OC         104
 6  Oc1ccc(-c2nc(-c3ccc(F)cc3)c(-c3ccncc3)[nH]2)cc1        96.4
 7  Nc1n[nH]c2nnc(-c3c(-c4ccccc4)nn4ccccc34)cc12         102
 8               Cc1cc2ncc(-c3ccccc3)nc2cc1C         101
 9   CC(C)n1cnc2c(Nc3cccc(Cl)c3)nc(NCCO)nc21        95.9
10  C#Cc1cccc(Nc2ncnc3cc(OCCOC)c(OCCOC)cc23)c1        93.1
11      COc1ccc(-c2cnc3c(-c4ccsc4)cnn3c2)cc1        88.7
12    Clc1ccc(Nc2nnc(Cc3ccncc3)c3ccccc23)cc1         109
13  O=c1cc(-c2cccc3c2Sc2ccccc2S3)oc(N2CCOCC2)c1         106
14  COc1cc2ncnc(Nc3ccc(F)c(Cl)c3)c2cc1OCCCN1CCOCC1        95.4
15  CCCNC(=O)Nc1ccc(Oc2ncnc3cc(OC)c(OC)cc23)cc1Cl        94.9

Entry source: the kinase profiling compilation of Christmann-Franck et al. (2016)
